All figures here come from patent US20220088146A1.

- SYSTEM NAME: human melanocortin-1 receptor (human, UniProt Q01726 1-317)
- Sequence (Q01726 whole entry): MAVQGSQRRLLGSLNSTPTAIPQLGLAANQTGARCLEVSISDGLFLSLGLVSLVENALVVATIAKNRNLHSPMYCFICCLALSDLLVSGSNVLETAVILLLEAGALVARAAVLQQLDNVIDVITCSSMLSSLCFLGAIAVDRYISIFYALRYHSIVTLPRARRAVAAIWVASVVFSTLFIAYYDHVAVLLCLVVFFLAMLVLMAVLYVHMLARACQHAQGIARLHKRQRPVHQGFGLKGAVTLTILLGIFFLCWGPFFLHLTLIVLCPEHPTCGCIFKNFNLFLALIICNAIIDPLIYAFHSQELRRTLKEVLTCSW
- PROTOCOL DETAILS: cell-based or functional assay
Bridge positions count the residues as written; N and C are the ends. Square brackets hold non-standard residues; d marks the D form. * marks the point of attachment. Cyclopentylacetyl = O=C(CC1CCCC1)*; Dab = NCC[C@H](N)C(=O)O; Pentanoyl = CCCCC(=O)*
QUANTITY MEASURED: MC-1 Emax (average; cAMP HBL) (%)
Only the number, expressed in %, is required.

[
  {
    "BINDER": "Ac-FEH[dF]R[Dab]W-NH2 (lactam 2-6, also called 9.13) [Ac-Phe-cyclo(Glu-His-D-Phe-Arg-Dab)-Trp-NH2]",
    "MEASURE UNIT": "%",
    "MC-1 Emax (average; cAMP HBL)": 75
  },
  {
    "BINDER": "Cyclopentylacetyl-EH[dF]R[Dab]W-NH2 (lactam 1-5, also called 9.21) [cyclopentyl acetyl-cyclo(Glu-His-D-Phe-Arg-Dab)-Trp-NH2]",
    "MEASURE UNIT": "%",
    "MC-1 Emax (average; cAMP HBL)": 83
  }
]

Now look at this entry.
Record Pentanoyl-EH[dF]R[Dab]W-NH2 (lactam 1-5, also called 9.16) [CH3-(CH2)3-C(═O)-cyclo(Glu-His-D-Phe-Arg-Dab)-Trp-NH2] , field MC-1 Emax (average; cAMP HBL): 89
